target: Growth hormone secretagogue receptor type 1 (Homo sapiens, UniProt Q92847); assay: Agonist activity at human GHSR1a by FLIPR assay
Sequence (Q92847 whole entry): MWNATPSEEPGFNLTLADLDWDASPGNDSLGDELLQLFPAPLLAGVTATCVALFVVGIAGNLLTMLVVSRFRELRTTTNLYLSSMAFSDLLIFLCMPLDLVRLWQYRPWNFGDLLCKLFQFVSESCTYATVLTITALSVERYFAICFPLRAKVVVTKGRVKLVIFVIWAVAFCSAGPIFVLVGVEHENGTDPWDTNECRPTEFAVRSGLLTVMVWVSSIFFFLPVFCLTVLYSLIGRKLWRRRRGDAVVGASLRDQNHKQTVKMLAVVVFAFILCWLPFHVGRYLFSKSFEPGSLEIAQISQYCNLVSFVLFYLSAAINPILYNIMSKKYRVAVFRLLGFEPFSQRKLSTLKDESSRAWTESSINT
MEASURED METRIC: pEC50
Please keep in mind that pEC50 is minus log10 of the molar concentration; only the number is needed.

# count of solved cases: 3
* C[C@@H]1CN(c2ccc(F)c(NS(=O)(=O)c3ccc(-c4ccccn4)s3)c2)C[C@H](C)N1 | 7.00
* COc1ccc(N2C[C@@H](C)N[C@@H](C)C2)cc1NS(=O)(=O)c1ccc(OCc2ccccc2)cc1 | 7.00
* C[C@@H]1CN(c2ccc(C(=O)N(C)C)c(NS(=O)(=O)c3ccc(-c4ccccn4)s3)c2)C[C@H](C)N1 | 6.10

Q. Request - read-out pEC50 | tested on Growth hormone secretagogue receptor type 1 (Homo sapiens, UniProt Q92847) | molecule COc1ccc(N2C[C@@H](C)N[C@@H](C)C2)cc1NS(=O)(=O)c1ccc(-c2ccc(C)o2)cc1
A. 9.10

====

test: Oral bioavailability in Sprague-Dawley rat at 3 mg/kg; type: ADME, organism-based; details: in vivo
MEASURED METRIC: bioavailability (%)
Write the number in % without appending the unit.

• COc1ccc(N2C[C@@H](C)N[C@@H](C)C2)cc1NS(=O)(=O)c1ccc(-c2ccc(C)o2)cc1 = 75

In the following, a different molecule is considered.
Q. GET /values?readout=bioavailability&item= COc1ccc(N2C[C@@H](C)N[C@@H](C)C2)cc1NS(=O)(=O)c1ccc(-c2cccs2)cc1
A. 74

====

target: Growth hormone secretagogue receptor type 1 (Homo sapiens, UniProt Q92847); assay: Agonist activity at human GHSR1a by FLIPR assay relative to human ghrelin; type: functional
MEASURED METRIC: Intrinsic activity
# respond with the number and nothing more

• C[C@@H]1CN(c2cccc(NS(=O)(=O)c3ccc(-c4ccccn4)s3)c2)C[C@H](C)N1 = 0.8
• COc1ccc(N2C[C@@H](C)N[C@@H](C)C2)cc1NS(=O)(=O)c1ccc(-c2ccccc2)cc1 = 1
• COc1ccc(N2C[C@@H](C)N[C@@H](C)C2)cc1NS(=O)(=O)c1ccc(N2CCCC2=O)cc1 = 0.8

Q. GET /values?readout=Intrinsic activity&item= CC(=O)c1ccc(N2C[C@@H](C)N[C@@H](C)C2)cc1NS(=O)(=O)c1ccc(-c2ccccn2)s1
A. 0.9

Q. GET /values?readout=Intrinsic activity&item= COc1ccc(N2C[C@@H](C)N[C@@H](C)C2)cc1NS(=O)(=O)c1ccc(-c2cncnc2)cc1
A. 0.6

Q. GET /values?readout=Intrinsic activity&item= CCOc1ccc(N2C[C@@H](C)N[C@@H](C)C2)cc1NS(=O)(=O)c1ccc(-c2ccccn2)s1
A. 0.8

Q. GET /values?readout=Intrinsic activity&item= COc1ccc(N2C[C@@H](C)N[C@@H](C)C2)cc1NS(=O)(=O)c1ccc(-c2cccs2)cc1
A. 1

Q. GET /values?readout=Intrinsic activity&item= COc1ccc(N2C[C@@H](C)N[C@@H](C)C2)cc1NS(=O)(=O)c1ccc(-c2cnco2)s1
A. 0.9

====

assay: Clearance in Sprague-Dawley rat at 1 mg/kg, iv; type: ADME, organism-based; design: dose 1 mg/kg, route intravenous; conditions: in vivo
The entries below come with measured clearance values attached.
A complete answer gives the number followed by the unit.

* COc1ccc(N2C[C@@H](C)N[C@@H](C)C2)cc1NS(=O)(=O)c1ccc(-c2ccc(C)o2)cc1 | 24 mL/min/kg

In the following, a different compound is considered.
Q. GET /values?readout=clearance&item= COc1ccc(N2C[C@@H](C)N[C@@H](C)C2)cc1NS(=O)(=O)c1ccc(-c2cccs2)cc1
A. 26 mL/min/kg

Every entry's value here was drawn from ChEMBL document CHEMBL1144045.
